tested on: LOLRI; assay: Pre-emergence action against LOLRI, 1280 g/ha; type: in vivo, Lolium rigidum; conditions: visual scoring after about 3 weeks vs untreated controls, 100% = plants have died, 0% = like control plants
REPORTED_ENDPOINT: Pre-emergence action against LOLRI

Query O=C(COc1nn(-c2ccccc2F)c(-c2ccc(F)nc2)c1Br)NO yields Pre-emergence action against LOLRI of 100%

Query CCC(Oc1nn(-c2ccccc2F)c(-c2ccc(F)nc2)c1Br)C(=O)OC (stereo not drawn) yields Pre-emergence action against LOLRI of 100%

Query CONC(=O)COc1nn(-c2ccc(F)cc2F)c(-c2ccc(F)cn2)c1Br yields Pre-emergence action against LOLRI of 90%

Query CCOC(=O)COc1nn(-c2ccccc2C)c(-c2ccc(F)nc2)c1Br yields Pre-emergence action against LOLRI of 90%

Query COC(=O)CNC(=O)COc1nn(-c2ccccc2F)c(-c2ccc(F)nc2)c1Br yields Pre-emergence action against LOLRI of 100%

Query COC(=O)[C@@H](C)Oc1nn(-c2cc(F)ccc2F)c(-c2ccc(F)nc2)c1Br yields Pre-emergence action against LOLRI of 100%

Query O=C(COc1nn(-c2ccccc2F)c(-c2ccc(F)nc2)c1Br)OCc1ccco1 yields Pre-emergence action against LOLRI of 100%

Query CCOC(=O)COc1nn(-c2ccccc2F)c(-c2ccc(F)nc2)c1C yields Pre-emergence action against LOLRI of 100%

Query CCOC(=O)COc1nn(-c2ccccc2F)c(-c2cnc(F)c(F)c2)c1Br yields Pre-emergence action against LOLRI of 90%

Query COC(=O)COc1nn(-c2cc(F)ccc2F)c(-c2ccc(F)nc2)c1Br yields Pre-emergence action against LOLRI of 100%

Query O=C(O)COc1nn(-c2ccccc2F)c(-c2cncc(F)c2)c1Br yields Pre-emergence action against LOLRI of 100%

Query Cc1ccc(-n2nc(OCC(=O)O)c(Br)c2-c2ccc(F)nc2)cc1 yields Pre-emergence action against LOLRI of 100%

Query N#CCCNC(=O)COc1nn(-c2ccccc2F)c(-c2ccc(F)nc2)c1Br yields Pre-emergence action against LOLRI of 100%

Query CCOC(=O)COc1nn(-c2ccc(F)cc2F)c(-c2ccc(F)nc2)c1F yields Pre-emergence action against LOLRI of 100%

Query COC(=O)[C@@H](C)Oc1nn(-c2ccccc2F)c(-c2cnccn2)c1Br yields Pre-emergence action against LOLRI of 90%

Query COC(=O)COc1nn(-c2c(F)cccc2F)c(-c2ccc(F)nc2)c1Br yields Pre-emergence action against LOLRI of 100%

Query C#Cc1c(OCC(=O)OCC)nn(-c2ccccc2F)c1-c1ccc(F)nc1 yields Pre-emergence action against LOLRI of 100%

Query C[C@@H](Oc1nn(-c2ccccc2F)c(-c2cncnc2)c1[N+](=O)[O-])C(=O)O yields Pre-emergence action against LOLRI of 100%

Query O=C(O)CNC(=O)COc1nn(-c2ccccc2F)c(-c2ccc(F)nc2)c1C(F)(F)F yields Pre-emergence action against LOLRI of 100%

Query O=C(O)COc1nn(-c2ccccc2F)c(-c2cnccn2)c1Br yields Pre-emergence action against LOLRI of 90%

Query COC(=O)COc1nn(-c2cc(F)ccc2F)c(-c2ccnc(F)c2)c1C#N yields Pre-emergence action against LOLRI of 100%

Query COC(=O)[C@H](C)Oc1nn(-c2cc(F)ccc2F)c(-c2ccc(F)nc2)c1Br yields Pre-emergence action against LOLRI of 90%

Query COC(=O)[C@@H](C)Oc1nn(-c2ccccc2F)c(-c2ccnc(F)c2)c1Br yields Pre-emergence action against LOLRI of 100%

Query CONC(=O)COc1nn(-c2ccccc2F)c(-c2ccc(F)nc2)c1Br yields Pre-emergence action against LOLRI of 100%

Query COC(=O)[C@@H](C)Oc1nn(-c2ccccc2F)c(-c2cncnc2)c1[N+](=O)[O-] yields Pre-emergence action against LOLRI of 100%

Query O=C(O)COc1nn(-c2ccccc2F)c(-c2ccc(F)nc2)c1Br yields Pre-emergence action against LOLRI of 90%

Query CCOC(=O)COc1nn(-c2ccccc2F)c(-c2ccnc(F)c2)c1Br yields Pre-emergence action against LOLRI of 100%

Query COC(=O)[C@H](C)Oc1nn(-c2ccccc2F)c(-c2cncnc2)c1Br yields Pre-emergence action against LOLRI of 100%

Query CCOC(=O)COc1nn(-c2ccccc2F)c(-c2cnccn2)c1Br yields Pre-emergence action against LOLRI of 90%

Query COC(=O)C(C)Oc1nn(-c2ccccc2)c(-c2ccc(F)nc2)c1Br (stereo not drawn) [VII-026] yields Pre-emergence action against LOLRI of 90%

Query C[C@@H](Oc1nn(-c2ccccc2F)c(-c2cncnc2)c1Br)C(=O)O yields Pre-emergence action against LOLRI of 100%

Query O=C(COc1nn(-c2ccccc2F)c(-c2ccc(F)nc2)c1Br)OCC1OCCO1 yields Pre-emergence action against LOLRI of 100%

Query O=C(COc1nn(-c2ccc(F)cc2F)c(-c2ccc(F)nc2)c1Br)NO yields Pre-emergence action against LOLRI of 100%

Query CON(C)C(=O)COc1nn(-c2ccc(F)cc2F)c(-c2ccc(F)nc2)c1Br yields Pre-emergence action against LOLRI of 100%

Query CCOC(=O)COc1nn(-c2ccccc2C)c(-c2ccc(F)nc2)c1I yields Pre-emergence action against LOLRI of 100%

Query CS(=O)(=O)NC(=O)COc1nn(-c2ccccc2F)c(-c2ccnc(F)c2)c1Br yields Pre-emergence action against LOLRI of 100%

----------
test system: AMARE; assay: Pre-emergence action at 320 g/ha against AMARE; format: in vivo, Amaranthus retroflexus; conditions: Amaranthus retroflexus, 504 h, visual scoring after about 3 weeks vs untreated controls
REPORTED_ENDPOINT: pest or weed control at 320 g/ha (%)
The response must be a number in % with no trailing unit.

Query C=CCNC(=O)COc1nn(-c2ccccc2F)c(-c2ccc(F)nc2)c1Br yields pest or weed control at 320 g/ha of 90

Query COC(=O)COc1nn(-c2ccccc2F)c(-c2cncnc2)c1Br yields pest or weed control at 320 g/ha of 100

Query O=C(O)COc1nn(-c2ccccc2F)c(-c2ccc(F)nc2)c1Br yields pest or weed control at 320 g/ha of 100

Query CCOC(=O)COc1nn(-c2ccccc2F)c(-c2ccnc(F)c2)c1Br yields pest or weed control at 320 g/ha of 90

----------
Could you please report measured Post-emergence action against ABUTH for the items listed next?
tested on: ABUTH; assay: Post-emergence action against ABUTH, 1.28 kg/ha; type: in vivo, Abutilon theophrasti; conditions: dosage 1280 g/ha, visual rating about 3 weeks after treatment vs untreated controls (100% = plants died)
The response must be a number in % with no trailing unit.

Query CONC(=O)COc1nn(-c2ccc(F)cc2F)c(-c2ccc(F)nc2)c1Br yields Post-emergence action against ABUTH of 100

Query O=C(O)C1CCCN1C(=O)COc1nn(-c2ccccc2F)c(-c2ccc(F)nc2)c1Br (centres unmarked) yields Post-emergence action against ABUTH of 100

Query COC(=O)COc1nn(-c2ccccc2F)c(-c2ccc(F)nc2)c1C(F)(F)F yields Post-emergence action against ABUTH of 90

Query CCOC(=O)COc1nn(-c2ccccc2F)c(-c2cnccn2)c1Br yields Post-emergence action against ABUTH of 90

Query COCCOC(=O)COc1nn(-c2ccccc2F)c(-c2ccc(F)nc2)c1Br yields Post-emergence action against ABUTH of 90

----------
System: LOLRI
Assay: Post-emergence action against LOLRI, 1.28 kg/ha
Assay type: in vivo, Lolium rigidum
Conditions: dosage 1280 g/ha, visual rating about 3 weeks after treatment vs untreated controls
Description: • a) Seeds of mono- and dicotyledonous weed plants are placed in plastic pots in sandy loam soil (twin sowing with one species each of mono- or dicotyledonous weed plants per pot), covered with soil and cultivated in a greenhouse under controlled growth conditions. 2 to 3 weeks after sowing, the test plants are treated at the one-leaf stage. […]
REPORTED_ENDPOINT: Post-emergence action against LOLRI (%)
The response must be a number in % with no trailing unit.

Given the compound CCOC(=O)COc1nn(-c2ccccc2F)c(-c2ccc(F)nc2)c1I and test system LOLRI, the measured Post-emergence action against LOLRI is 100

Given the compound COC(=O)CCOC(=O)COc1nn(-c2ccccc2F)c(-c2ccc(F)nc2)c1Br and test system LOLRI, the measured Post-emergence action against LOLRI is 90

Given the compound C[C@@H](Oc1nn(-c2ccccc2F)c(-c2cncnc2)c1Cl)C(=O)O and test system LOLRI, the measured Post-emergence action against LOLRI is 90

Given the compound Cc1ccccc1-n1nc(OCC(=O)O)c(I)c1-c1ccc(F)nc1 and test system LOLRI, the measured Post-emergence action against LOLRI is 90

Given the compound COC(=O)COc1nn(-c2ccc(F)cc2)c(-c2cccnc2)c1Br and test system LOLRI, the measured Post-emergence action against LOLRI is 90

Given the compound CCOC(=O)C(C)Oc1nn(-c2ccccc2F)c(-c2ccc(F)nc2)c1C(F)(F)F (stereo not drawn) and test system LOLRI, the measured Post-emergence action against LOLRI is 100

Given the compound COC(=O)C(C)Oc1nn(-c2ccccc2)c(-c2ccc(F)nc2)c1Cl (stereo not drawn) and test system LOLRI, the measured Post-emergence action against LOLRI is 100

Given the compound C[C@@H](Oc1nn(-c2ccccc2F)c(-c2cncnc2)c1Br)C(=O)O and test system LOLRI, the measured Post-emergence action against LOLRI is 90

Given the compound CCOC(=O)COc1nn(-c2ccc(F)cc2F)c(-c2ccc(F)nc2)c1Cl and test system LOLRI, the measured Post-emergence action against LOLRI is 90
